The measurements presented in this section are drawn from PubChem BioAssay AID330.

system: P388 leukemia ip, CD2F1 mice, survival T/C; experiment: NCI In Vivo Anticancer Drug Screen. Data for tumor model P388 Leukemia (intraperitoneal) in CD2F1 (CDF1) mice; details: endpoint: median survival time; dose: 100.0 mg/kg/injection; schedule: Q01DX009 (ip); vehicle: Klucel (hydroxypropylcellulose) (HPC); higher = longer survival
Inconclusive results and toxic doses are left out.
Measured T/C, listed per entry for reference.

                                   compound  test_readout        data_value
0  N=C(/C(=C/c1cccc2ccccc12)c1ccccc1)c1ccccc1           T/C  104 % of control
1  Cc1ccc(N=Cc2ccc(C=Nc3ccc(C)cc3C)cc2)c(C)c1           T/C   91 % of control
2                         O=CNNC(=O)C(Cl)Cl           T/C  107 % of control
3  Cc1c(NC(=S)Nc2ccc(Cl)c(Cl)c2)c(=O)n(-c2ccccc2)n1C           T/C   93 % of control
4               O=S(=O)(NCc1ccccc1)c1ccccc1           T/C  104 % of control

Provide only the value of recorded T/C for `COc1ccc(OC)c(CCN2C(=O)c3cccc4c([N+](=O)[O-])ccc(c34)C2=O)c1` 106 % of control

Provide only the value of recorded T/C for `c1ccc2c(CNC3CCCCC3)c[nH]c2c1` 96 % of control

Provide only the value of recorded T/C for O=P(c1ccccc1)(c1ccccc1)C(O)c1cccs1 (configuration not stated) 88 % of control

Provide only the value of recorded T/C for `O=S(=O)(Cc1ccccc1)C(c1ccccc1)S(=O)(=O)Cc1ccccc1` 91 % of control

Provide only the value of recorded T/C for CC(C)c1ccccc1[S+]1OC(C)(C)c2ccccc21 (configuration not stated) 103 % of control

Provide only the value of recorded T/C for `CN(C)NC(=S)Sc1ccccc1` 99 % of control

Provide only the value of recorded T/C for `CCCCCOC(=O)c1ccccc1N` 91 % of control

---

tested on: P388 leukemia ip, CD2F1 mice, survival T/C; assay: NCI In Vivo Anticancer Drug Screen. Data for tumor model P388 Leukemia (intraperitoneal) in CD2F1 (CDF1) mice; details: endpoint: median survival time; dose: 50.0 mg/kg/injection; schedule: Q01DX009 (ip); vehicle: saline; higher = longer survival
Inconclusive results and toxic doses are left out.
Test readout: T/C

Would you please look over these solved cases?
In [3]: df
Out[3]:
                                   molecule        data_value
0          CCCCCCCCCCCCCCCC[N+]1([O-])CCCC1  102 % of control
1  O=C1c2cccc(O)c2C(=O)c2c(OC3OC(CO)C(OC4OC(CO)C(O)C(O)C4O)C(O)C3O)cccc21 (stereo not drawn)  104 % of control

Okay, next one:
Enter measured T/C, system P388 leukemia ip, CD2F1 mice, survival T/C, for the molecule shown: `Cc1ccc(NC(=S)NC(=O)/C=C/c2ccccc2)cc1Cl` 105 % of control

---

tested on: P388 leukemia ip, CD2F1 mice, survival T/C; assay: NCI In Vivo Anticancer Drug Screen. Data for tumor model P388 Leukemia (intraperitoneal) in CD2F1 (CDF1) mice; conditions: endpoint: median survival time; dose: 25.0 mg/kg/injection; schedule: Q01DX009 (ip); vehicle: Klucel (hydroxypropylcellulose) (HPC); higher = longer survival
Inconclusive results and toxic doses are left out.
Measured T/C, listed per entry for reference.

Would you please look over these solved cases?
Compound	Test readout	Data value
Cc1csc(NC(=O)Nc2ccc(F)cc2[N+](=O)[O-])n1	T/C	106 % of control
Nc1ccccc1-c1nc2ccncc2[nH]1	T/C	102 % of control
CC(=O)Nc1ccc(Sc2ncc([N+](=O)[O-])s2)cc1	T/C	116 % of control

Enter measured T/C, system P388 leukemia ip, CD2F1 mice, survival T/C, for the compound shown: COC1/C=C\OC2(C)Oc3c(C)c(O)c4c(O)c(c(CN(C)CCO)c(O)c4c3C2=O)NC(=O)/C(C)=C\C=C/C(C)C(O)C(C)C(O)C(C)C(OC(C)=O)C1C (stereo not drawn) 117 % of control

Enter measured T/C, system P388 leukemia ip, CD2F1 mice, survival T/C, for the compound shown: `N#CC(C#N)=C/C=C/c1cccc([N+](=O)[O-])c1` 100 % of control

Enter measured T/C, system P388 leukemia ip, CD2F1 mice, survival T/C, for the compound shown: `CC/C=c1/[nH]c(=O)/c(=C\c2ccc([N+](=O)[O-])cc2)[nH]c1=O` 90 % of control

Enter measured T/C, system P388 leukemia ip, CD2F1 mice, survival T/C, for the compound shown: `C=CCn1c(=S)sc2ccccc21` 104 % of control

Enter measured T/C, system P388 leukemia ip, CD2F1 mice, survival T/C, for the compound shown: `S=C1CC(c2ccc(Sc3ccccc3)cc2)=Nc2ccccc2N1` 90 % of control

Enter measured T/C, system P388 leukemia ip, CD2F1 mice, survival T/C, for the compound shown: C[N+]1(C)CCC(OC(=O)C(O)(c2ccccc2)C2CCCC2)C1 (stereo not drawn) 97 % of control

Enter measured T/C, system P388 leukemia ip, CD2F1 mice, survival T/C, for the compound shown: CCCCCCCCCCCC(C)NCc1ccccc1 (stereo not drawn) 99 % of control

Enter measured T/C, system P388 leukemia ip, CD2F1 mice, survival T/C, for the compound shown: `CCCCCC1=C/N\C(C#N)=C(C#N)/N=C/C(CCCCC)=C\N\C(C#N)=C(C#N)/N=C\1` 93 % of control

Enter measured T/C, system P388 leukemia ip, CD2F1 mice, survival T/C, for the compound shown: `S=C(C(=S)N1CCOCC1)N1CCOCC1` 110 % of control

Enter measured T/C, system P388 leukemia ip, CD2F1 mice, survival T/C, for the compound shown: `Oc1c(-c2ccccc2)nn(O)c1-c1ccccc1` 100 % of control

Enter measured T/C, system P388 leukemia ip, CD2F1 mice, survival T/C, for the compound shown: `C/C=C/C(=O)Sc1ccccc1` 105 % of control

---

test system: P388 leukemia ip, CD2F1 mice, survival T/C; experiment: NCI In Vivo Anticancer Drug Screen. Data for tumor model P388 Leukemia (intraperitoneal) in CD2F1 (CDF1) mice; details: endpoint: median survival time; dose: 50.0 mg/kg/injection; schedule: Q01DX009 (ip); vehicle: Klucel (hydroxypropylcellulose) (HPC); higher = longer survival
Inconclusive results and toxic doses are left out.
Test readout: T/C

Would you please look over these solved cases?
In [3]: df
Out[3]:
                               compound                          target_or_system        data_value
0  O=P1(N(CCCl)CCCl)Nc2cccc3cccc(c23)N1  P388 leukemia ip, CD2F1 mice, survival T/C  120 % of control
1                  CN(C)NC(=S)Sc1ccccc1  P388 leukemia ip, CD2F1 mice, survival T/C  100 % of control

Provide only the value of recorded T/C for CC(Br)(C(Br)c1ccccc1)[N+](=O)[O-] (configuration not stated) 108 % of control

Provide only the value of recorded T/C for `C(=NCc1ccccc1)c1ccccc1-c1ccccc1C=NCc1ccccc1` 86 % of control

Provide only the value of recorded T/C for `CCCCCCCCCCC(=O)Nc1ncc([N+](=O)[O-])s1` 96 % of control

---

Measured T/C, listed per entry for reference.
system: P388 leukemia ip, CD2F1 mice, survival T/C; experiment: NCI In Vivo Anticancer Drug Screen. Data for tumor model P388 Leukemia (intraperitoneal) in CD2F1 (CDF1) mice; conditions: endpoint: median survival time; dose: 30.0 mg/kg/injection; schedule: Q01DX005 (ip); vehicle: saline; higher = longer survival
Inconclusive results and toxic doses are left out.

Enter measured T/C, system P388 leukemia ip, CD2F1 mice, survival T/C, for the compound shown: CC(c1ccccc1)n1ccnc1CC#N (centres undefined) 100 % of control

---

Measured T/C, listed per entry for reference.
test system: P388 leukemia ip, CD2F1 mice, survival T/C; assay: NCI In Vivo Anticancer Drug Screen. Data for tumor model P388 Leukemia (intraperitoneal) in CD2F1 (CDF1) mice; settings: endpoint: median survival time; dose: 100.0 mg/kg/injection; schedule: Q01DX005 (ip); vehicle: Klucel (hydroxypropylcellulose) (HPC); higher = longer survival
Inconclusive results and toxic doses are left out.

                                   molecule                          target_or_system        data_value
0          CCOC(=O)CSC(=O)c1cccnc1Oc1ccccc1  P388 leukemia ip, CD2F1 mice, survival T/C   90 % of control
1          Cc1nnc2c3[nH]c4ccccc4c3c(Cl)nn12  P388 leukemia ip, CD2F1 mice, survival T/C   92 % of control
2                        Cc1cc2ccccc2nc1C#N  P388 leukemia ip, CD2F1 mice, survival T/C  101 % of control
3              N=C(N)Sc1cc(Br)c[n+]([O-])c1  P388 leukemia ip, CD2F1 mice, survival T/C  102 % of control
4  CC(SSc1ccc(C(C)(C)C)cc1)c1ccccc1 (configuration not stated)  P388 leukemia ip, CD2F1 mice, survival T/C  104 % of control
5  CN(C)C1CCc2ccc3ccccc3c2C1=O (configuration not stated)  P388 leukemia ip, CD2F1 mice, survival T/C  103 % of control
6  COc1ccc(Cc2cc3c(cc2OCC(=O)N2CCOCC2)OCO3)cc1  P388 leukemia ip, CD2F1 mice, survival T/C   89 % of control
7   O=c1cc(C(F)(F)F)c2cc3c4c(c2o1)CCCN4CCC3  P388 leukemia ip, CD2F1 mice, survival T/C  100 % of control
8  CCCCN1C(=O)CC(SC2CC(=O)N(CCCC)C2=O)C1=O (configuration not stated)  P388 leukemia ip, CD2F1 mice, survival T/C   86 % of control
9  O=C(OCC(Cl)(Cl)Cl)N1[C@@H]2C=C[C@@H](N1C(=O)OCC(Cl)(Cl)Cl)[C@@]13CCCCC21O3 (some centres not stated)  P388 leukemia ip, CD2F1 mice, survival T/C  108 % of control

Provide only the value of recorded T/C for `C=C(C)c1nc(N)nc(NCc2ccccc2)n1` 102 % of control

Provide only the value of recorded T/C for `COC(=O)n1c(=O)oc2c(Br)cc(Br)cc21` 106 % of control
